System: SK-LU-1
Assay: relative viability (nuclei count vs DMSO), 5 days (fraction); higher = more cells survive
Settings: first compound 0.003162 µM
Overview of recorded relative viability for various molecules
Reply: number alone, nothing else.

These solved cases illustrate the format of a correct answer.
Ask: Item under review: Cc1cn(-c2cc(NC(=O)c3ccc(C)c(Nc4nccc(-c5cccnc5)n4)c3)cc(C(F)(F)F)c2)cn1 [Nilotinib] + Cc1nc(NC(=O)N2CCC[C@H]2C(N)=O)sc1-c1ccnc(C(C)(C)C(F)(F)F)c1 [Alpelisib] (partner 2 µM) . Reported relative viability?
Reply: 1.03

Ask: Item under review: Cc1cn(-c2cc(NC(=O)c3ccc(C)c(Nc4nccc(-c5cccnc5)n4)c3)cc(C(F)(F)F)c2)cn1 [Nilotinib] + O=C(c1cc(Cc2n[nH]c(=O)c3ccccc23)ccc1F)N1CCN(C(=O)C2CC2)CC1 [Olaparib] (partner 8 µM) . Reported relative viability?
Reply: 0.469

Ask: Item under review: Cc1cn(-c2cc(NC(=O)c3ccc(C)c(Nc4nccc(-c5cccnc5)n4)c3)cc(C(F)(F)F)c2)cn1 [Nilotinib] + CCNC(=O)c1noc(-c2cc(C(C)C)c(O)cc2O)c1-c1ccc(CN2CCOCC2)cc1 [Luminespib] (partner 0.01 µM) . Reported relative viability?
Reply: 0.212

Now turn to the next molecule.
Ask: Item under review: Cc1cn(-c2cc(NC(=O)c3ccc(C)c(Nc4nccc(-c5cccnc5)n4)c3)cc(C(F)(F)F)c2)cn1 [Nilotinib] + N=C(N)NC(=N)NCCc1ccccc1 [Phenformin] (partner 250 µM) . Reported relative viability?
Reply: 0.455

----------
Tested on: NCI-H358
Test: relative viability (nuclei count vs DMSO), 5 days (fraction); higher = more cells survive
Details: first compound 0.8 µM
Please respond with yes (1) when measured relative viability is strictly beneath 0.6, and with no (0) in all other cases.

// below: answered compounds
Ask: I wonder whether Nc1cccc2c1CN(C1CCC(=O)NC1=O)C2=O (stereo unspecified) [Lenalidomide] + CCNC(=O)c1noc(-c2cc(C(C)C)c(O)cc2O)c1-c1ccc(CN2CCOCC2)cc1 [Luminespib] (partner 0.01 µM) has relative viability below 0.6. Can you tell?
Reply: yes (1)

Ask: I wonder whether Nc1cccc2c1CN(C1CCC(=O)NC1=O)C2=O (stereo unspecified) [Lenalidomide] + COc1cccc2cc(-c3nc([C@H]4CC[C@H](C(=O)O)CC4)n4ncnc(N)c34)[nH]c12 [OSI-027] (partner 0.5 µM) has relative viability below 0.6. Can you tell?
Reply: no (0)

Ask: I wonder whether Nc1cccc2c1CN(C1CCC(=O)NC1=O)C2=O (stereo unspecified) [Lenalidomide] + Nc1nc2[nH]cc(CCc3ccc(C(=O)N[C@@H](CCC(=O)O)C(=O)O)cc3)c2c(=O)[nH]1 [Pemetrexed] (partner 0.2 µM) has relative viability below 0.6. Can you tell?
Reply: yes (1)

Proceed to the following item.
Ask: I wonder whether Nc1cccc2c1CN(C1CCC(=O)NC1=O)C2=O (stereo unspecified) [Lenalidomide] + O=C(CCCCCCC(=O)Nc1ccccc1)NO [Vorinostat] (partner 1 µM) has relative viability below 0.6. Can you tell?
Reply: no (0)

----------
Overview of recorded relative viability for various compounds
System: NCI-H1734
Experiment: relative viability (nuclei count vs DMSO), 5 days (fraction); higher = more cells survive
Conditions: first compound 0.02 µM
Reply: number alone, nothing else.

These solved cases illustrate the format of a correct answer.
Ask: Item under review: CN1CCN(CCOc2cc(OC3CCOCC3)c3c(Nc4c(Cl)ccc5c4OCO5)ncnc3c2)CC1 [Saracatinib] + CC(C)C[C@H](NC(=O)[C@H](Cc1ccccc1)NC(=O)c1cnccn1)B(O)O [Bortezomib] (partner 0.002 µM) . Reported relative viability?
Reply: 1.08

Ask: Item under review: CCNC(=O)c1noc(-c2cc(C(C)C)c(O)cc2O)c1-c1ccc(CN2CCOCC2)cc1 [Luminespib] + N=C(N)NC(=N)NCCc1ccccc1 [Phenformin] (partner 250 µM) . Reported relative viability?
Reply: 0.3

Ask: Item under review: CN1CCN(CCOc2cc(OC3CCOCC3)c3c(Nc4c(Cl)ccc5c4OCO5)ncnc3c2)CC1 [Saracatinib] + COc1cc2c(Oc3ccc(NC(=O)C4(C(=O)Nc5ccc(F)cc5)CC4)cc3F)ccnc2cc1OCCCN1CCOCC1 [Foretinib] (partner 0.25 µM) . Reported relative viability?
Reply: 0.852

---
Ask: Item under review: CN1CCN(CCOc2cc(OC3CCOCC3)c3c(Nc4c(Cl)ccc5c4OCO5)ncnc3c2)CC1 [Saracatinib] + C[C@@H](Oc1cc(-c2cnn(C3CCNCC3)c2)cnc1N)c1c(Cl)ccc(F)c1Cl [Crizotinib] (partner 1 µM) . Reported relative viability?
Reply: 0.751

Data provenance is the supplement of paper PMC10307832.
